assay: CCTE_Shafer_MEA_dev_per_network_spike_spike_percent: CCTE's Neural Network Formation Assay for Percent of Spikes in a Network Spike, Shafer Lab (AID 2284054)
Active and inactive are the calls of the source. The calls were made as follows: active = hit-call score of the fitted dose curve at least 0.9, where 1 is the maximum; inactive = score below 0.9.
The reply should name one outcome from yes (1) (active), no (0) (inactive)

# COMPOUND, CLASS
records = [
    ("CC1(C)S[C@@H]2[C@H](NC(=O)[C@H](N)c3ccccc3)C(=O)N2[C@H]1C(=O)O", "no (0)"),
]

Entry `COc1ccc2cc3[n+](cc2c1OC)CCc1cc2c(cc1-3)OCO2` : call = ?
yes (1)

Now consider `Cc1c(O)cccc1C(=O)N[C@@H](CSc1ccccc1)[C@H](O)CN1C[C@H]2CCCC[C@H]2C[C@H]1C(=O)NC(C)(C)C` .
yes (1)

Same question, CC(C)(C)NCC(O)c1cc(O)cc(O)c1 (stereo unspecified) this time
no (0)

Same question, `C[C@H](CS)C(=O)N1CCC[C@H]1C(=O)O` this time
no (0)

Further, for `NC(N)=Nc1nc(CSCCC(N)=NS(N)(=O)=O)cs1` ?
no (0)

====

assay: TOX21_p53_BLA_p2_viability: Viability Assessment in the Tox21 HCT-116 p53 Agonism Beta-lactamase Assay, Phase 2 (AID 2283591);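 also: compound exposure lasted 16 h at 37 °C; actives lower the ATP signal meaning cytotoxicity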
Results filed as inconclusive are left out. Calls of active or inactive are those of the source. The calls were made as follows: active = hit-call score of the fitted dose curve at least 0.9, where 1 is the maximum; inconclusive = response in the unintended direction; inactive = score below 0.9.
Output constraint: value belongs to active, inactive

# COMPOUND, CLASS
data = [
    ("O=C(OC1C[C@H]2CC[C@@H](C1)[N+]21CCCC1)C(O)(c1ccccc1)c1ccccc1 (stereo partly specified)", "inactive"),
    ("Cc1c(C)n(CCN(C)C)c2ccc(C(=O)OCCN(C)C)cc12", "inactive"),
    ("C[N+](C)(CCCCCC[N+](C)(C)C1c2ccccc2-c2ccccc21)C1c2ccccc2-c2ccccc21", "inactive"),
    ("COC(=O)N/N=C/c1c[n+]([O-])c2ccccc2[n+]1[O-]", "inactive"),
    ("CO[C@H]1/C=C/O[C@@]2(C)Oc3c(C)c(O)c4c(O)c(c(/C=N/N5CCN(C6CCCC6)CC5)c(O)c4c3C2=O)NC(=O)/C(C)=C\\C=C\\[C@H](C)[C@H](O)[C@@H](C)[C@@H](O)[C@@H](C)[C@H](OC(C)=O)[C@@H]1C", "active"),
    ("CN=C(NC#N)NCCSCc1csc(N=C(N)N)n1", "inactive"),
    ("O=Cc1cccc([N+](=O)[O-])c1", "inactive"),
    ("O=C(O)C(S)C(S)C(=O)O (stereo unspecified)", "inactive"),
    ("On1nnc2ccccc21", "inactive"),
    ("CCCCCCCCCC#N", "inactive"),
]

Query: recorded result category for `CC[C@H]1NC(=O)[C@@H](NC(=O)c2ncccc2O)[C@@H](C)OC(=O)[C@H](c2ccccc2)NC(=O)[C@@H]2CC(=O)CCN2C(=O)[C@H](Cc2ccccc2)N(C)C(=O)[C@@H]2CCCN2C1=O` in this test
inactive

====

assay: ATG_ERE_CIS: Attagene CIS-FACTORIAL HepG2 Assay for Estrogen Response Element (ERE) (AID 2282940); details: HepG2 ERE cis-reporter, Attagene RNA transcript; actives raise or lower the signal
Calls of active or inactive are those of the source. How the source made its calls: active means hit-call score of the fitted dose curve at least 0.9, where 1 is the maximum; inactive means score below 0.9.
The reply should be one of these categories: active, inactive

# COMPOUND, CLASS
records = [
    ("COC(OC)C(C)c1ccccc1 (stereo not drawn)", "inactive"),
]

Just curious, what result did `CCCC(=O)OC` get here?
inactive

What do we get for `CC(=O)c1nccs1` ?
active
